These measurements were taken from ChEMBL document CHEMBL1140185.

# Protocol Details: Oral bioavailability in cyclosporine A pretreated ICR mouse
# Type: ADME, organism-based
# Conditions: in vivo, in the assay text read “in ICR mouse” for “in cyclosporine A pretreated ICR mouse”

| Molecule | Unit Annotation | bioavailability |
| --- | --- | --- |
| CC(=O)O[C@H]1C(=O)[C@@]2(C)[C@H]([C@H](OC(=O)c3ccccc3)[C@]3(O)C[C@H](OC(=O)[C@H](O)[C@@H](NC(=O)c4ccccc4)c4ccccc4)C(C)=C1C3(C)C)[C@]1(OC(C)=O)CO[C@@H]1C[C@@H]2O | % | 0.23 |
